# assayed target: cloned human or rodent CNS receptors, channels, and transporters (PDSP panel) (Homo sapiens)
# Construct: expressed in transfected cells
# experimental protocol: PDSP GPCR panel primary binding assays at 10 μM
# test parameters: D2; primary assay, replicate 1
measurement name: Inhibition 1 (%)
# unit: % | format: bare number

As a guide, the following entries are already answered.
O=C(NC1CC1)C(=O)C(Cc1ccccc1)NC(=O)[C@H]1CCC(=O)N1Cc1ccccc1 (stereo partly shown) [UNC10302676A, ABT-957 (Alicapistat)]    -14.25
CNc1nc(C)nc(N[C@H]2CCC[C@@H](C(=O)NCc3ccc(C#N)cc3C(F)(F)F)C2)n1 [UNC10302679A, GSK2256294A]    3.31

# input molecule: CCC(=O)N1CCC(NC(=O)Nc2ccc(OC(F)(F)F)cc2)CC1 [UNC10302681A, TPPU] ; wanted: its Inhibition 1
8.4

Quick one: Inhibition 1 of CC(=O)N1CCC(NC(=O)NC23CC4CC(CC(C4)C2)C3)CC1 [UNC10302683A, AR9281] ?
-4.63

* * *

# assayed target: cloned human or rodent CNS receptors, channels, and transporters (PDSP panel) (Homo sapiens)
# Construct: expressed in transfected cells
# experimental protocol: PDSP GPCR panel primary binding assays at 10 μM
# test parameters: Receptor 5-HT1D; primary assay, 10 μM
Below, each entry is listed with its recorded Inhibition 4.
Field format: number, assumed %, no unit text.

The examples below pair each entry with its known result.
O=c1oc2ccccc2cc1-c1cn2cc(Cc3ccc(F)cc3)sc2n1 [UNC10302680A, iMDK]    -8.43
c1cn2cc(-c3ccc4cn[nH]c4c3)nc(Nc3ccc(N4CCOCC4)cc3)c2n1 [UNC10302678A, Entospletinib (GS-9973)]    3.23
Cl.NC(=O)c1cnc(N[C@@H]2CCCC[C@@H]2N)nc1Nc1cccc(-n2nccn2)c1 [UNC10302682A, P505-15 (PRT06207 HCl)]    71.94

Could you now consider this next compound?
Query: Inhibition 4; subject: CCCCNc1ncc2c(-c3ccc(CN4CCN(C)CC4)cc3)cn([C@H]3CC[C@H](O)CC3)c2n1 [UNC2025C, UNC2025]
48.2

* * *

# assayed target: cloned human or rodent CNS receptors, channels, and transporters (PDSP panel) (Homo sapiens, UniProt P41145)
# Construct: expressed in transfected cells
# Sequence (P41145 whole entry): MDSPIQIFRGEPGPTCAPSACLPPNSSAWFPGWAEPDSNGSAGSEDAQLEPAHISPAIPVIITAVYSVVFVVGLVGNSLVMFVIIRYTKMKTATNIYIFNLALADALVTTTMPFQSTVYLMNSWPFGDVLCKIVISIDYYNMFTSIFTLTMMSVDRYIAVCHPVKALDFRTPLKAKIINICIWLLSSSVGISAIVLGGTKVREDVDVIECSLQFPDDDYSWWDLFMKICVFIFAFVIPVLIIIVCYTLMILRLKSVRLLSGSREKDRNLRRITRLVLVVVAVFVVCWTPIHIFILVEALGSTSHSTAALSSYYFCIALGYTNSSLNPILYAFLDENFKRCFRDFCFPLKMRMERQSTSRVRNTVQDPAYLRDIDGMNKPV
# experimental protocol: PDSP GPCR panel primary binding assays at 10 μM
# test parameters: Receptor KOR; primary assay, 10 μM
The compounds listed here are annotated with their Inhibition 2.
A number alone suffices; assume %.

CCCCNc1ncc2c(-c3ccc(CN4CCN(C)CC4)cc3)cn([C@H]3CC[C@H](O)CC3)c2n1 [UNC2025C, UNC2025]    -11.2

Give the measured Inhibition 2 of c1cn2cc(-c3ccc4cn[nH]c4c3)nc(Nc3ccc(N4CCOCC4)cc3)c2n1 [UNC10302678A, Entospletinib (GS-9973)] .
-33.36

Reported Inhibition 2 for Cl.NC(=O)c1cnc(N[C@@H]2CCCC[C@@H]2N)nc1Nc1cccc(-n2nccn2)c1 [UNC10302682A, P505-15 (PRT06207 HCl)] : what is it?
-18.02

Need Inhibition 2, item O=c1oc2ccccc2cc1-c1cn2cc(Cc3ccc(F)cc3)sc2n1 [UNC10302680A, iMDK]
-19.7
